Test system: E-tag antibody
Assay: ELISA analysis of phage on antibody raised against ETAG (positive control)
Conditions: peptide binding to E-tag antibody; phage ELISA units read at 405 nm
Label rule, in plain words: ETAG (OD) of 10 OD and up is class 1, under 10 OD is class 0.

These recorded examples may help you get a feel for the data.
In [3]: df
Out[3]:
                           ordered_residues  category
0  LHFGSVMGWRPPGSLWSRPFGQVHPRSWSGS (DGI-2-40F-3-D11; listed as Escherichia coli)   class 1
1  RSQVRVVSRERSTPVLIHIRIECLLFSGWCVTSGSDEGVVWG [DGI-2-40F-4-F122]   class 0
2  RDTMCGSVSWGIPGCEYSGM (DGI-2-20R-4-G122; listed as Escherichia coli)   class 1
3  EGQRVVFLFGALVAGLCWRDR (DGI-2-20F-PP-F3; listed as Escherichia coli)   class 1
4  MGSLGPFGNTNSLASGIGSVRNRPLLPLHGSP [DGI-2-40F-3-D72]   class 1

Q. Decide: is the reported value of ETAG (OD) for RSRSSSGASGSMLRVQNHMVLGSWMVRQPMGSMTPFHGHG (DGI-2-40F-3-B5; listed as Escherichia coli) equal to or greater than 10 OD?
A. class 0

Q. hey, is ETAG (OD) for this one >= 10 OD? ALRSLGSGGFGWQAGRASPQGMTHFPYFGWSGMPTARVRP (DGI-2-40F-3-D7; listed as Escherichia coli)
A. class 1
